Please go through the items and note down their Kd.
# targetOrSystem: T1, human CD40-Fc protein (human, UniProt P25942 21-193)
# T1 construct: also called human CD40-Fc fusion protein; CD40-Fc antigen; not shown: Fc part
# T1 sequence (P25942 21-193 limits assumed): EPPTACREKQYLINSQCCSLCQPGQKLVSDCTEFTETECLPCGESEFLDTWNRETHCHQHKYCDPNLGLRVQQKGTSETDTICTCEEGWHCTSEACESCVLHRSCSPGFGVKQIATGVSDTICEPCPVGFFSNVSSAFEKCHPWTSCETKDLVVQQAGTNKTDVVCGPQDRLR
# assayProtocol: BLI (ForteBio), IgG on AHQ sensor, 100 nM CD40-Fc in solution, bivalent, 1:1 model
Units required after the number.

* ADI-55147 (antibody, human IgG1, kappa, V domains shown) VH: QVQLVESGGGVVQPGRSLRLSCAASGFTFGSYGMHWVRQAPGKGLEWVAVISYEGVKKYYADSVKGRFTISRDNSKNTLYLQMNSLRAEDTAVYYCARDTSRGHDIWGQGTMVTVSS VL: EIVLTQSPGTLSLSPGERATLSCRASQSVSYDYLAWYQQKPGQAPRLLIYGASARANGIPDRFSGSGSGTDFTLTISRLEPEDFAVYYCQQYADYPPFTFGGGTKVEIKR | 0.139 nM

Moving on to the next binder.
Consider the binder shown here: ADI-55142 (antibody, human IgG1, kappa, V domains shown) VH: QVQLVESGGGVVQPGRSLRLSCAASGFTFEKYGMHWVRQAPGKGLEWVAVISYEGEKKYYADSVKGRFTISRDNSKNTLYLQMNSLRAEDTAVYYCARDTSRGHDIWGQGTMVTVSS VL: EIVLTQSPGTLSLSPGERATLSCRASQSVSYSYLAWYQQKPGQAPRLLIYGASSRANGIPDRFSGSGSGTDFTLTISRLEPEDFAVYYCSDYADYPPFTFGGGTKVEIKR What is its recorded Kd?
0.146 nM

// data source = patent US20260265391A1
